Target: full-length beta-Catenin (Uniprot ID P35222) (Homo sapiens (Human)) (UniProt P35222)
Assay: fluorescence polarization competition against 5FAM-TCF4 10-53 on full-length beta-catenin
pIC50: −log10 of the molar value. Starred links: 1 amine or outer side, 2 acyl side, 3 side chain; linkers in the order of their positions; H or OH if unused. Positions of bridges follow the written chain, without caps; N, C: chain ends. Non-standard residues stand in square brackets, D forms with d. Primed or numbered codes have the meaning given here. *: point of attachment. (CH2CMe2CO2H)TriAzDap = (S)-3-(1-(2-amino-2-carboxyethyl)-1H-1,2,3-triazol-4-yl)-2,2-dimethylpropanoic acid, CC(C)(Cc1cn(C[C@H](N[*:1])C(=O)[*:2])nn1)C(=O)[*:3]; PyrS2″ = (S)-3-amino-1-((pent-4-en-1-yloxy)carbonyl)pyrrolidine-3-carboxylic acid (stapling residue), C=CCCCOC(=O)N1CC[C@@](N[*:1])(C(=O)[*:2])C1; B5(4) = 2,2-bis(4-pentenyl)glycine = 2-amino-2-(pent-4-en-1-yl)hept-6-enoic acid (stitching residue), C=CCCCC(CCCC=C)(N[*:1])C(=O)[*:2]; PyrS2 = (S)-3-amino-1-((pent-4-en-1-yloxy)carbonyl)pyrrolidine-3-carboxylic acid, C=CCCCOC(=O)N1CC[C@@](N[*:1])(C(=O)[*:2])C1; B5(19) = 2-amino-2-(pent-4-en-1-yl)hept-6-enoic acid (bis(4-pentenyl)glycine), C=CCCCC(CCCC=C)(N[*:1])C(=O)[*:2]; MePpzAsn = (S)-2-amino-4-(4-methylpiperazin-1-yl)-4-oxobutanoic acid, CN1CCN(C(=O)C[C@H](N[*:1])C(=O)[*:2])CC1; B5(3) = 2,2-bis(4-pentenyl)glycine (stitching residue), C=CCCCC(CCCC=C)(N[*:1])C(=O)[*:2]; Phe(F5) = N[C@@H](Cc1c(F)c(F)c(F)c(F)c1F)C(=O)O; Phe(3-COOH) = N[C@@H](Cc1cccc(C(=O)O)c1)C(=O)O; 2F3MeF = Cc1cccc(C[C@H](N[*:1])C(=O)[*:2])c1F; Phe(2-CF3) = N[C@@H](Cc1ccccc1C(F)(F)F)C(=O)O; Bta = N[C@@H](Cc1csc2ccccc12)C(=O)O; Isobutyloxycarbonyl = CC(C)COC(=O)*; αAllylPro = C=CC[C@@]1(C(=O)O)CCCN1; tBuAla = CC(C)(C)C[C@H](N)C(=O)O; 3Thi = N[C@@H](Cc1ccsc1)C(=O)O; hSer = N[C@@H](CCO)C(=O)O
Measured Attribute: pIC50

Reference set (3 entries):
• Ac-[αAllylPro]D[tBuAla][B5(19)]DWAAFN[PyrS2][3Thi][Bta]Q-NH2 (staple 1-4, 4-11) [I-1788] = 7.24
• Ac-[αAllylPro]D[tBuAla][B5(4)]D[(CH2CMe2CO2H)TriAzDap]QAFL[PyrS2″][Phe(2-CF3)][Bta]A-NH2 (staple 1-4, 4-11) [I-2368] = 8.30
• Ac-[αAllylPro]D[tBuAla][B5(19)]DHAAF[hSer][PyrS2][3Thi][Bta]Q-NH2 (staple 1-4, 4-11; not fully specified; printed as Ac-PL3-Asp-Npg-B5-Asp-His-Ala-Ala-Phe-Hse-PyrS2-3Thi-BztA-Gln-NH2) [I-1793] = 7.70

[I] Ac-[αAllylPro]D[tBuAla][B5(19)]D[Phe(F5)]AAFL[PyrS2][3Thi][Bta]Q-NH2 (staple 1-4, 4-11) [I-1792]
[II] Isobutyloxycarbonyl-[αAllylPro]D[tBuAla][B5(4)]DDAAFQ[PyrS2″][3Thi][Bta]H-NH2 (staple 1-4, 4-11) [I-2364]
[III] Ac-[αAllylPro]D[tBuAla][B5(4)]NTAAFT[PyrS2″][3Thi][Bta]Q-NH2 (staple 1-4, 4-11) [I-1621]
Exam item: List from greatest to least pIC50. Sort and list the labels as requested.
Marked response: II, III, I
(II: 6.94, III: 6.58, I: 6.03)

[1] Ac-[αAllylPro]D[tBuAla][B5(19)]DYAAF[hSer][PyrS2][3Thi][Bta]Q-NH2 (staple 1-4, 4-11) [I-1783]
[2] Ac-[αAllylPro]D[tBuAla][B5(3)]D[Phe(3-COOH)]AAFL[PyrS2″][2F3MeF][Bta][MePpzAsn]-NH2 (staple 1-4, 4-11) [I-1612]
Exam item: Could you tell me which of these two has the smaller pIC50 figure? First: 1 Second: 2 # reply format: chosen label
Marked response: 1
